Collected melting point values appear next to each entry.

Answered examples (2):
COc1ccc(C(=O)CCCCNCCc2ccccc2Cl)cc1S(=O)(=O)NC(C)C.Cl: 179 to 181 °C
Cl.O=C(CCCCNC1CCc2ccccc21)c1cc2c3c(c1)CCN3C(=O)CC2 (racemic): 98 to 100 °C

Identify the reported melting point for the following entry. `Cl.O=C(CCCCCN1CCCc2ccccc2C1)c1cc2c3c(c1)CCN3C(=O)CC2`
195 to 197 °C

Identify the reported melting point for the following entry. `Cl.O=C1CCc2cc(C(=O)[C@H]3CC[C@H](CNCCc4ccccc4Cl)CC3)cc3c2N1CC3`
271 °C

Identify the reported melting point for the following entry. `COc1ccc(C(=O)CCCCNCCc2ccccc2Cl)cc1S(N)(=O)=O.Cl`
161 to 163 °C

###

Structures can show the parent of a compound that is named as a salt.
readout_label: melting point

Answered examples (6):
CCOc1ccccc1OCCN1CCC(CCC(=O)c2ccc(OC)c(N)c2)CC1 (as salt: hydrochloride): 123 to 125 °C
CN(CCCCC(=O)c1ccc2c(c1)CNC(=O)N2)CCc1ccccc1.Cl: 164 to 166 °C
Cl.NS(=O)(=O)c1cc(C(=O)CCCCNCCc2ccccc2Cl)cc2c1OCCO2: 178 to 180 °C
Cl.O=C1NCc2cc(C(=O)CCCCNCCc3ccccc3Cl)ccc2N1: 176 to 185 °C (dec.)
COc1ccccc1CCNCCCCC(=O)c1cc2c(c(S(N)(=O)=O)c1)OCCO2.Cl: 166 to 168 °C
Cl.O=C(CCC1CCN(C2CCc3ccccc32)CC1)c1cc2c3c(c1)CCN3C(=O)CC2 (racemic): 111 to 113 °C

Identify the reported melting point for the following entry. `COc1ccccc1CCN1CCC(CCC(=O)c2cc3c4c(c2)CCN4C(=O)CC3)CC1.Cl`
209 to 211 °C

Identify the reported melting point for the following entry. `CN(CCCCC(=O)c1ccc2c(c1)CNC(=O)N2)CCc1ccccc1Cl.Cl`
192 to 195 °C (dec.)

Identify the reported melting point for the following entry. `CC(C)NS(=O)(=O)c1cc(C(=O)CCCCNCCc2ccccc2Cl)cc2c1OCC2.Cl`
149 to 151 °C

Identify the reported melting point for the following entry. `Cl.O=C(CCCCNCCCc1ccccc1)c1cc2c3c(c1)CCN3C(=O)CC2`
116 to 118 °C

Identify the reported melting point for the following entry. `Cl.O=C(CCCCNCCc1ccccc1Cl)c1ccc2[nH]c(=O)[nH]c2c1`
233 °C

Identify the reported melting point for the following entry. `COc1ccc(C(=O)CCCCNCCc2ccccc2Cl)cc1NS(C)(=O)=O.Cl`
133 to 135 °C

Identify the reported melting point for the following entry. `CN(CCCCCC(=O)c1cc2c3c(c1)CCN3C(=O)CC2)CCc1ccccc1.Cl`
83 to 85 °C

Identify the reported melting point for the following entry. `Cc1ccccc1CCN1CCC(CCC(=O)c2cc3c4c(c2)CCN4C(=O)CC3)CC1.Cl`
215 to 216 °C

Identify the reported melting point for the following entry. `COc1ccc(C(=O)CCCCNCCc2ccccc2)cc1S(N)(=O)=O.Cl`
160 to 168 °C

Identify the reported melting point for the following entry. `CN(CCCCC(=O)c1ccc2[nH]c(=O)[nH]c2c1)CCc1ccccc1.Cl`
240 °C

Identify the reported melting point for the following entry. `Cl.O=C(CCC1CCN(CC(=O)c2ccccc2)CC1)c1cc2c3c(c1)CCN3C(=O)CC2`
114 to 116 °C

Identify the reported melting point for the following entry. `Cl.O=C(CCC1CCN(CCc2ccccc2Cl)CC1)c1cc2c3c(c1)CCN3C(=O)CC2`
207 to 210 °C

Identify the reported melting point for the following entry. `COc1ccc(CCNCCCCC(=O)c2cc3c4c(c2)CCN4C(=O)CC3)cc1S(N)(=O)=O.Cl`
145 °C (dec.)

Identify the reported melting point for the following entry. `Cl.O=C(CCCCNCCc1ccccc1O)c1cc2c3c(c1)CCN3C(=O)CC2`
112 to 113 °C

Identify the reported melting point for the following entry. `COc1ccccc1CCNCCCCC(=O)c1cc2c3c(c1)CCN3C(=O)CC2.Cl`
94 to 96 °C

Identify the reported melting point for the following entry. `Cl.O=C(CCC1CCN(CCc2ccc([N+](=O)[O-])cc2)CC1)c1cc2c3c(c1)CCN3C(=O)CC2`
217 to 219 °C

Identify the reported melting point for the following entry. Cl.O=C1CCc2cc(C(=O)[C@H]3CC[C@H](CNCCc4ccccc4)CC3)cc3c2N1CC3 (stereo in doubt)
252 to 254 °C

Identify the reported melting point for the following entry. `Cl.O=C(CCC1CCN(CCc2c(Cl)cccc2Cl)CC1)c1cc2c3c(c1)CCN3C(=O)CC2`
226 to 229 °C

Identify the reported melting point for the following entry. `COc1ccc(CCN2CCC(CCC(=O)c3cc4c5c(c3)CCN5C(=O)CC4)CC2)cc1.Cl`
141 to 143 °C

Identify the reported melting point for the following entry. `Cl.NS(=O)(=O)c1cc(C(=O)CCCCNCCc2ccccc2Cl)cc2c1OCC2`
160 to 170 °C

Identify the reported melting point for the following entry. `Cl.O=C(CCC1CCN(CCc2cccc(Cl)c2)CC1)c1cc2c3c(c1)CCN3C(=O)CC2`
223 to 225 °C

Identify the reported melting point for the following entry. `Cl.O=C(CCCCNCCc1ccccc1Cl)c1c[nH]c2ccccc12`
149 to 151 °C

Identify the reported melting point for the following entry. `COc1ccc(CCNCCCCCC(=O)c2cc3c4c(c2)CCN4C(=O)CC3)cc1.Cl`
179 to 180 °C

Identify the reported melting point for the following entry. `COc1ccccc1CCNCCCCC(=O)c1ccc(OC)c(S(=O)(=O)NC(C)C)c1.Cl`
164 to 166 °C

Identify the reported melting point for the following entry. `COc1ccccc1CCN(C)CCCCC(=O)c1ccc2c(c1)n(C)c(=O)n2C.Cl`
125 to 140 °C (dec.)

###

Collected melting point values appear next to each entry.

Answered examples (3):
Cl.O=C(CCCCNCCc1ccccc1Cl)c1cc2c3c(c1)CCN3C(=O)CC2: 128 to 130 °C
COc1cc2c(cc1OC)CN(CCCCCC(=O)c1cc3c4c(c1)CCN4C(=O)CC3)CC2.Cl: 216 to 218 °C
Cl.O=C(CCC1CCN(CCc2ccccc2F)CC1)c1cc2c3c(c1)CCN3C(=O)CC2: 210 to 212 °C

We next turn to a different molecule, shown below.
Identify the reported melting point for the following entry. `COc1ccc(CCNCCCCC(=O)c2cc3c4c(c2)CCN4C(=O)CC3)cc1.Cl`
179 to 181 °C

###

Collected melting point values appear next to each entry.

COc1ccccc1CCN(C)CCCCC(=O)c1ccc2[nH]c(=O)[nH]c2c1.Cl: 169 to 180 °C (dec.)
COc1ccccc1CCNCCCCC(=O)c1cc2c3c(c1)CC(=O)N3CCC2.Cl: 169 to 170 °C
COc1cccc(CCNCCCCC(=O)c2cc3c4c(c2)CCN4C(=O)CC3)c1.Cl: 97 to 100 °C

Identify the reported melting point for the following entry. `Cl.O=C(CCC1CCN(CCc2ccccc2O)CC1)c1cc2c3c(c1)CCN3C(=O)CC2`
220 to 222 °C

###

readout_label: melting point

Answered examples (3):
COc1ccccc1CCNCCCCC(=O)c1ccc(OC)c(S(N)(=O)=O)c1.Cl: 139 to 141 °C
COc1cccc(CCNCCCCCC(=O)c2cc3c4c(c2)CCN4C(=O)CC3)c1.Cl: 136 to 138 °C
COc1ccc2c(c1)CCCN(CCCC(=O)c1cc3c4c(c1)CCN4C(=O)CC3)C2.Cl: 121 to 123 °C

We next turn to a different molecule, shown below.
Identify the reported melting point for the following entry. `CCOc1ccccc1CCN1CCC(CCC(=O)c2cc3c4c(c2)CCN4C(=O)CC3)CC1.Cl`
182 to 184 °C
